Tested on: fibrin plates
ASSAY_NAME: Antifibrinolytic activity in vitro by means of fibrin plates, modified and standardized method of Astrup and Mullertz
Assay type: biochemical
CONDITION_SET: AMCHA as standard (= 1)
Measured Antifibrinolytic activity, Weight capacity, listed per entry.
// print number alone

The examples below pair each entry with its known result.
O=S(=O)(O)c1cc(O)ccc1O [Ethamsylate, reference compound]: 0.28
CC(=O)Oc1cc(S(=O)(=O)O)c2ccccc2c1N(C(C)=O)C(C)=O [Example 1]: 0.91

Query: Which Antifibrinolytic activity, Weight capacity value is on record for NC[C@H]1CC[C@H](C(=O)O)CC1 [AMCHA, reference compound] ?
Response: 1

Query: Follow-up item: CC(=O)Nc1c(OC(C)=O)cc(S(=O)(=O)O)c2ccccc12 [Example 5]
Response: 0.55

Query: Follow-up item: CC(=O)Oc1cc(S(=O)(=O)O)c2ccccc2c1N(C(C)=O)C(C)=O [Example 2]
Response: 0.59

Query: Follow-up item: CC(=O)Oc1cc(S(=O)(=O)O)c2ccccc2c1N(C(C)=O)C(C)=O [Example 11]
Response: 1.19

Query: Follow-up item: CC(=O)Oc1cc(S(=O)(=O)O)c2ccccc2c1N(C(C)=O)C(C)=O [Example 4]
Response: 1.21

###

ASSAY_NAME: Acute toxicity, LD50 in mice
Type: in vivo
CONDITION_SET: mouse, in vivo, po, read-out: Acute toxicity, LD50, Oral route
ASSAY_METRIC: LD50

Query: Which LD50 value is on record for `CC(=O)Oc1cc(S(=O)(=O)O)c2ccccc2c1N(C(C)=O)C(C)=O` ?
Response: > 7000 mg/kg

###

ASSAY_NAME: Acute toxicity, LD50 in mice
Assay type: in vivo
CONDITION_SET: mouse, in vivo, iv, i.v. (endovenous), read-out: Acute toxicity, LD50, I.v. route
ASSAY_METRIC: LD50 (mg/kg)
Write the value in mg/kg as a bare number.

Query: Which LD50 value is on record for O=S(=O)(O)c1cc(O)ccc1O [Ethamsylate, reference compound] ?
Response: 800

###

Test system: mean bleeding (clotting) time measured in a rabbit ear
ASSAY_NAME: Hemostatic activity: mean bleeding (clotting) time in a rabbit ear, technique of Roskam and Pauwen
Assay type: in vivo
CONDITION_SET: 100 mg/kg, i.v.
ASSAY_METRIC: Hemostatic activity, % Effect (%)
Write the value in % as a bare number.

Query: Which Hemostatic activity, % Effect value is on record for CC(=O)Oc1cc(S(=O)(=O)O)c2ccccc2c1N(C(C)=O)C(C)=O [Example 11] ?
Response: 32

Query: Follow-up item: CC(=O)Oc1cc(S(=O)(=O)O)c2ccccc2c1N(C(C)=O)C(C)=O [Example 2]
Response: 13

Query: Follow-up item: CC(=O)Oc1cc(S(=O)(=O)O)c2ccccc2c1N(C(C)=O)C(C)=O [Example 4]
Response: 29.8

Query: Follow-up item: CC(=O)Oc1cc(S(=O)(=O)O)c2ccccc2c1N(C(C)=O)C(C)=O [Example 1]
Response: 23

Query: Follow-up item: NC[C@H]1CC[C@H](C(=O)O)CC1 [AMCHA, reference compound]
Response: 26.5

###

Test system: fibrin plates
ASSAY_NAME: Antifibrinolytic activity in vitro by means of fibrin plates, modified and standardized method of Astrup and Mullertz
Type: biochemical
CONDITION_SET: AMCHA as standard (= 1)
Kindly apply the following: Criterion met if Antifibrinolytic activity, Relative capacity is less than 2, Criterion not met in every other case.

Known results for compounds:
O=S(=O)(O)c1cc(O)ccc1O [Ethamsylate, reference compound]: Criterion met
CC(=O)Oc1cc(S(=O)(=O)O)c2ccccc2c1N(C(C)=O)C(C)=O [Example 11]: Criterion not met
CC(=O)Oc1cc(S(=O)(=O)O)c2ccccc2c1N(C(C)=O)C(C)=O [Example 4]: Criterion not met
CC(=O)Nc1c(OC(C)=O)cc(S(=O)(=O)O)c2ccccc12: Criterion met
CC(=O)Oc1cc(S(=O)(=O)O)c2ccccc2c1N(C(C)=O)C(C)=O [Example 2]: Criterion met

Query: Determine whether this compound shows Antifibrinolytic activity, Relative capacity lower than 2 (ties excluded): CC(=O)Oc1cc(S(=O)(=O)O)c2ccccc2c1N(C(C)=O)C(C)=O [Example 1]
Response: Criterion not met

###

System: vascular permeability produced by histamine
ASSAY_NAME: Capillary permeability, Lefebre's method (vascular permeability produced by histamine in rats)
Type: in vivo
CONDITION_SET: 0.100 g/kg, subcutaneous
Method: The effect on the capillary permeability is determined by means of Lefebre's method, which is based on measuring, at the time of appearance of a coloration, the vascular permeability produced by histamine in rats that have been injected with the product under investigation. Ethamsylate is used as a standard, and the results obtained are as follows: […]
Kindly apply the following: 1.0 if Capillary permeability, % Effect is less than 20%, 0.0 in every other case.

Known results for molecules:
CC(=O)Oc1cc(S(=O)(=O)O)c2ccccc2c1N(C(C)=O)C(C)=O [Example 1]: 1.0
NC[C@H]1CC[C@H](C(=O)O)CC1 [AMCHA, reference compound]: 1.0
CC(=O)Oc1cc(S(=O)(=O)O)c2ccccc2c1N(C(C)=O)C(C)=O [Example 2]: 0.0
O=S(=O)(O)c1cc(O)ccc1O [Ethamsylate, reference compound]: 0.0

Query: Determine whether this molecule shows Capillary permeability, % Effect lower than 20% (ties excluded): CC(=O)Oc1cc(S(=O)(=O)O)c2ccccc2c1N(C(C)=O)C(C)=O [Example 11]
Response: 1.0
